In this section we review reported Binding to Human CTLA4 (amount per unit antibody) values for a set of binders.
# measured-on: T1, human CTLA4 (soluble analyte of the Biacore assays of Examples 3-3, 4 and 5) (human, UniProt P16410 36-161)
# T1 construct: also called hCTLA4
# T1 sequence: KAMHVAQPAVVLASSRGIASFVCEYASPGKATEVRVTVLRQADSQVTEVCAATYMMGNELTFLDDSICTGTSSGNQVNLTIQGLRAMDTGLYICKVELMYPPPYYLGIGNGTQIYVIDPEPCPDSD
# experiment: SPR 37C, Ab on Protein G, 1000 nM CTLA4, ATP 100 uM; ATP 100 uM; binding amount at 1000 nM CTLA4
Form: value (number only, do not type unit).

Here are 5 binders together with their reported answers.
* 04H1208-G1m/04L1086-lam1 (antibody, human IgG1, lambda, V domains shown) VH: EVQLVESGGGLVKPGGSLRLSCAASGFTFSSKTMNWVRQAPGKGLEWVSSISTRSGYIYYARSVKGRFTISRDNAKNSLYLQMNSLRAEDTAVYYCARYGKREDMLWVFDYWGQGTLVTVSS VL: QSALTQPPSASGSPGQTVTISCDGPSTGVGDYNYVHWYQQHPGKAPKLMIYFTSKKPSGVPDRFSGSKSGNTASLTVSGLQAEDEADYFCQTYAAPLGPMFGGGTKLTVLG | 0.17
* 04H1077-G1m/04L1086-lam1 (antibody, human IgG1, lambda, V domains shown) VH: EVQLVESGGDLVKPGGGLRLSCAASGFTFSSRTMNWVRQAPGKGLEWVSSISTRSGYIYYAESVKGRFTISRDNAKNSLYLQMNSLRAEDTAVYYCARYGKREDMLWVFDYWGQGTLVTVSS VL: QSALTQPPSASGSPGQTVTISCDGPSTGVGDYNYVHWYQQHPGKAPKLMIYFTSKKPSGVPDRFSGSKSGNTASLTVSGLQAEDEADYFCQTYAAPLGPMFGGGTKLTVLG | 0.181
* 04H1077-G1m/04L1041-lam1 (antibody, human IgG1, lambda, V domains shown) VH: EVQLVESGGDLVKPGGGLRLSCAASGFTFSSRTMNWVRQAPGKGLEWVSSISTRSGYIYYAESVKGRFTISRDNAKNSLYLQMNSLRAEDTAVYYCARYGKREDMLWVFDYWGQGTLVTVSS VL: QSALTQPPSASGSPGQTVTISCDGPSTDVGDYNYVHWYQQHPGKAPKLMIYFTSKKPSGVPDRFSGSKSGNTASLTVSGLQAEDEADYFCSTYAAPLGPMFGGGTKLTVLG | 0.172
* 04H1077-G1m/04L1067-lam1 (antibody, human IgG1, lambda, V domains shown) VH: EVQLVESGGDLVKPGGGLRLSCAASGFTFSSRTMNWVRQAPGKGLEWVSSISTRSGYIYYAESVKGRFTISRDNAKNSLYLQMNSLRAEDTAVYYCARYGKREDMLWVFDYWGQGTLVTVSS VL: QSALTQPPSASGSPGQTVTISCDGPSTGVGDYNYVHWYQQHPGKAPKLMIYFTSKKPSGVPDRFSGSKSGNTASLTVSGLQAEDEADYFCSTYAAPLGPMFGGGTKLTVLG | 0.192
* 04H1207-G1m/04L1086-lam1 (antibody, human IgG1, lambda, V domains shown) VH: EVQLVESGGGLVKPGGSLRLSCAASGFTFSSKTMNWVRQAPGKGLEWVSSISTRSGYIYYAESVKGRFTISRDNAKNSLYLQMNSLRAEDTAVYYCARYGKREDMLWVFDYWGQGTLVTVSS VL: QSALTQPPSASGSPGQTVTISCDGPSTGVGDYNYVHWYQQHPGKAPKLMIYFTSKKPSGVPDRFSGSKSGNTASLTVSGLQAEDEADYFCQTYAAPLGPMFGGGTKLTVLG | 0.196

Param item = 04H1077-G1m/04L1034-lam1 (antibody, human IgG1, lambda, V domains shown) VH: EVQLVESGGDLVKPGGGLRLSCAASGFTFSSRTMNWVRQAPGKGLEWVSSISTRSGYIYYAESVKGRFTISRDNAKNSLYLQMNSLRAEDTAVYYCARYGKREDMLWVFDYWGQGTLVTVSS VL: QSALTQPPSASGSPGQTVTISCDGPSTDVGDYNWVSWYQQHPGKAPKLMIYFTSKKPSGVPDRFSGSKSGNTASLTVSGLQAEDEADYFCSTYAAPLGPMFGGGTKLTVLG ; retrieve measured Binding to Human CTLA4 (amount per unit antibody).
0.114
